ENDPOINT_NAME: melting point (°C)
Unit °C implied. Number only.

Request: Provide measured melting point value, entry: Cn1c2ccccc2c2cc(NC(=O)c3ccccc3Cl)ccc21
Result: 206

Request: Provide measured melting point value, entry: CC(C)n1c2ccccc2c2cc(NC(=O)c3ccccc3Cl)ccc21
Result: 195

###

Test system: production of PGE2
ASSAY_INFO: Inhibition of PGE2 production in IL-1β-stimulated A549 cells (EIA)
Assay type: cell-based
EXPERIMENTAL_CONTEXT: Homo sapiens, IL-1β 1 ng/ml, 18 hours, negative logarithm of IC50, read-out: pIC50 PGE2 (converted)
ENDPOINT_NAME: IC50 (nM)
Unit nM implied. Number only.

As a guide, the following entries are already answered.
CC(C)n1c2ccccc2c2cc(NC(=O)c3ccccc3Cl)ccc21 [Compound 2] : 794
O=C(Nc1ccc2c(c1)c1ccccc1n2Cc1ccccc1)c1ccccc1Cl [Compound 3] : 1260

Request: Provide measured IC50 value, entry: COc1ccc2c(c1)c(CC(=O)O)c(C)n2C(=O)c1ccc(Cl)cc1 [indomethacin, reference compound]
Result: 5.01

Request: Provide measured IC50 value, entry: CCn1c2ccccc2c2cc(NC(=O)c3ccccc3C(F)(F)F)ccc21 [Compound 4]
Result: 631
